# study_system: integrin αβ8 (αvβ8), form in the assay not stated (UniProt P06756 31-992)
# Sequence (chain, as listed by the source, chain 1 of 2): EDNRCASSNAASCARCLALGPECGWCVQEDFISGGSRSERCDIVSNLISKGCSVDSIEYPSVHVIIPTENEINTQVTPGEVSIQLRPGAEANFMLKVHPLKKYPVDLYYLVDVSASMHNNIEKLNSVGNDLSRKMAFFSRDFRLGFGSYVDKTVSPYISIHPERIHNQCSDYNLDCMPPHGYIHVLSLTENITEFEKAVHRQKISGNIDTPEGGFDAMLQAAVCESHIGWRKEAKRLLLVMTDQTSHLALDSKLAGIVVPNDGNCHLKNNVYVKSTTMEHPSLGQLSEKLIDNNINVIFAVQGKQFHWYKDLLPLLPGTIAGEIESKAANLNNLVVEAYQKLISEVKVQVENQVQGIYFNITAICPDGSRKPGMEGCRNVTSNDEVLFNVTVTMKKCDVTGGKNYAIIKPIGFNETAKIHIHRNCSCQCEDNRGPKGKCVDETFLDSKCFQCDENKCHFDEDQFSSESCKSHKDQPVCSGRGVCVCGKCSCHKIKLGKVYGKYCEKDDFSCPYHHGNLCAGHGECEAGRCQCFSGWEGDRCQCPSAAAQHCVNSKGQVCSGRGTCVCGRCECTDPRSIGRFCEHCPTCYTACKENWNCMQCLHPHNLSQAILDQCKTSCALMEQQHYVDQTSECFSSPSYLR
# Sequence (P06756 31-992, chain 2 of 2): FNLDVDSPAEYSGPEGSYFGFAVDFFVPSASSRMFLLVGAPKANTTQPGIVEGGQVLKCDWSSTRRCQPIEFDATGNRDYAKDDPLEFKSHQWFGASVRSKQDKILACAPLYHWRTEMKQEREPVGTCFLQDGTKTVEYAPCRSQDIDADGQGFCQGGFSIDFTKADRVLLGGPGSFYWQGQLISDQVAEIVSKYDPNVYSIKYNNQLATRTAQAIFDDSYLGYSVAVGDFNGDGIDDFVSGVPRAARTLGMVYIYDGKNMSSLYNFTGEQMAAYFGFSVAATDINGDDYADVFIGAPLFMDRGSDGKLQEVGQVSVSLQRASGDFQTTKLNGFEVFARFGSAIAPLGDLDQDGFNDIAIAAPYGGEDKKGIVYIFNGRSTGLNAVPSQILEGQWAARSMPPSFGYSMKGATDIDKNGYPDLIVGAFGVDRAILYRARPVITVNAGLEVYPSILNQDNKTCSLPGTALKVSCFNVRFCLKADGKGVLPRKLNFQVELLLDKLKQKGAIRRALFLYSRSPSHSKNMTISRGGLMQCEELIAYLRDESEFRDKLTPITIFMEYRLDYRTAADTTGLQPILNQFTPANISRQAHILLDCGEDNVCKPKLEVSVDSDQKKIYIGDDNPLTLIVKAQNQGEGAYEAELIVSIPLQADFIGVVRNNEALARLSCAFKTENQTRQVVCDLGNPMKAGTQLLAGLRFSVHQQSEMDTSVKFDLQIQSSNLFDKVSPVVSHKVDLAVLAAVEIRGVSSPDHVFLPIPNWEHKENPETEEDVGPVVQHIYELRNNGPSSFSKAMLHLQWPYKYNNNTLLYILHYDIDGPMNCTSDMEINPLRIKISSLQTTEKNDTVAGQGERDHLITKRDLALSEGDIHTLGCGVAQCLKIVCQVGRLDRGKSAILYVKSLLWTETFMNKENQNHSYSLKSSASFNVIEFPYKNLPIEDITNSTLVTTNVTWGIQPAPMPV
# test_details: affinity determination of scFv; method and antigen form not stated
test_readout: pKd
Answers are plain numbers, as −log10 of the molar value.

I have 3 binders here; please give me pKd for each one.
1. 11E8Mut28 scFv (scFv, V domains shown) VH: EVQLQQSGPELMKTGASVKISCKATGYTFSSYWIEWVKQRPGHGLEWIGDILPGSGTTNYNEKFKGKAAITADTSSNTSYLQLSSLTSEDSAVYYCARWGWDSYWGQGTLVTVSS VL: DIVMTQSPSSLSASLGDRVTISCSASQGISNYLNWYQQKPDGTVKLLIYYTSSLHSGVPSRFSGSGSGTDYSLTISNLEPEDIATYYCQQFSNLPYTFGGGTKLEIK
2. 14E5 scFv (scFv, V domains shown) VH: EVQLQQSGAELMKPGASVKISCKATGYTFSTYWIEWIKQRPGHGLEWIGHILPGSVITNYNEKFKGKAAITADTSSNTSYMQLSSLTSEDSAVYYCARWGWDSYWGQGTLVTVSS VL: DIEMTQSPSSLSASLGDRVTISCSTSQDISSSLNWYQQKPDGTVTLLIYYTSNLHSGVPSRFSGSGSGTDYSLTISNLEPEDIATYYCQQYSKLPYTFGGGTKLEIK
3. 6B9Mut1 scFv (scFv, V domains shown) VH: QVQLQQSGAELVRPGTSVKVSCKASGYAFTDYLIEWVKQRPGQGLEWIGVINPETGGTNYNAKFRGKATLTADKSSSSAYMQLSSLTSGDSAVYFCAREAGNYIYAMDYWGQGTSVTVSS VL: DIVMTQSPASLSASVGETVTITCRASVNIYSYLVWYQQKQGKSPQLLVHNAKTLAEGVPSRFSGSGSGTQFSLKINSLQPEDFGSYYCQHHHGTPYTFGGGTKLEIK

-- reply
8.45
7.86
8.03
